Reported melting point by item:

Guide cases for melting point, answers given:
[
  {
    "molecule": "CNC(=O)Nc1cc(CNc2ncccc2C(=O)Nc2ccc3cnn(C)c3c2)ccn1 [Example 1.2]",
    "outcomeMeasure": "melting point",
    "result": "228 to 229 °C"
  },
  {
    "molecule": "CNC(=O)Nc1cc(CNc2ncccc2C(=O)Nc2ccc3c(cnn3C)c2)ccn1 [Example 1.4]",
    "outcomeMeasure": "melting point",
    "result": "219 to 220 °C"
  },
  {
    "molecule": "CNC(=O)Nc1cc(CNc2ncccc2C(=O)Nc2cccc(C(F)(F)F)c2)ccn1 [Example 1.1]",
    "outcomeMeasure": "melting point",
    "result": "206 to 207 °C"
  },
  {
    "molecule": "CNC(=O)Nc1cc(CNc2ncccc2C(=O)Nc2ccc3cn(C)nc3c2)ccn1 [Example 1.0]",
    "outcomeMeasure": "melting point",
    "result": "205 to 207 °C"
  }
]

// query Recorded melting point for CNC(=O)Nc1cc(CNc2ncccc2C(=O)Nc2cc3ccccc3cn2)ccn1 [Example 1.3] , please?
// result 191 to 192 °C

---

# targetEntity: KDR-Kinase (VEGFR-2) (Homo sapiens, UniProt P35968)
# Construct: GST-kinase domain fusion construct of the KDR kinase; GST
# Sequence (P35968 834-1162 limits assumed, species assumed): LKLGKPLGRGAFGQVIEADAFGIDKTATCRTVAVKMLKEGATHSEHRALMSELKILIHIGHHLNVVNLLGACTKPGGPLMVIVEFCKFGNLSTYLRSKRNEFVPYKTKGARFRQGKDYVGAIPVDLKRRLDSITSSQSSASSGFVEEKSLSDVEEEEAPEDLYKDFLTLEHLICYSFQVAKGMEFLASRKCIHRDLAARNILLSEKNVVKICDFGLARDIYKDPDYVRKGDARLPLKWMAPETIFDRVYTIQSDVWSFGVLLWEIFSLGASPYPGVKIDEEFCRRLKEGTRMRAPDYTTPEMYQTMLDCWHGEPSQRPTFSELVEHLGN
# measurementNotes: KDR Kinase Inhibition
# conditionInfo: GST-kinase domain fusion construct of the KDR kinase; poly(Glu4Tyr) substrate, 32P-γATP
outcomeMeasure: IC50 (nM)

I = Cn1cc2ccc(NC(=O)c3cccnc3NCc3ccnc(NC(=O)N4CCOCC4)c3)cc2n1 [Example 2.0]
II = CNC(=O)Nc1cc(CNc2ncccc2C(=O)Nc2ccc3cn(C)nc3c2)ccn1 [Example 1.0]
// query Which entry shows the lesser value of IC50 here, I or II ? Answer with the label corresponding to your selection.
// result II
